Exercise: for every item that follows, state its recorded EC10 LMR dark.
Test system: Danio rerio embryo
Assay: EC10 LMR dark; higher = less potent
Conditions: exposure time: 4 dpf
Reply with just the number (in µM).

q: // lookup EC10 LMR dark for CNCCC=C1c2ccccc2CCc2ccccc21 [Nortriptyline]
a: 0.745

q: // lookup EC10 LMR dark for CN(Cc1cnc2nc(N)nc(N)c2n1)c1ccc(C(=O)N[C@@H](CCC(=O)O)C(=O)O)cc1 [Methotrexate]
a: 186

q: // lookup EC10 LMR dark for CC(C)(C)C(O)C(Oc1ccc(Cl)cc1)n1cncn1 (centres undefined) [Triadimenol]
a: 6.51

q: // lookup EC10 LMR dark for CC1=C(/C=C/C(C)=C/C=C/C(C)=C/C(=O)O)C(C)(C)CCC1 [all-trans retinoic acid]
a: 0.016

q: // lookup EC10 LMR dark for CCOC(=O)N1CCC(=C2c3ccc(Cl)cc3CCc3cccnc32)CC1 [Loratadine]
a: 0.279

q: // lookup EC10 LMR dark for CC(C)(C)C(O)/C(=C/c1ccc(Cl)cc1Cl)n1cncn1 (centres undefined) [Diniconazole]
a: 2.25

q: // lookup EC10 LMR dark for CCCNCC(O)COc1ccccc1C(=O)CCc1ccccc1 (centres undefined) [Propafenone]
a: 2.43

q: // lookup EC10 LMR dark for C[Si](Cn1cncn1)(c1ccc(F)cc1)c1ccc(F)cc1 [Flusilazole]
a: 1.3

q: // lookup EC10 LMR dark for Cc1ccc(-c2cc(C(F)(F)F)nn2-c2ccc(S(N)(=O)=O)cc2)cc1 [Celecoxib]
a: 8.51

q: // lookup EC10 LMR dark for CSc1nc2cc(Cl)c(Oc3cccc(Cl)c3Cl)cc2[nH]1 [Triclabendazole]
a: 0.178

q: // lookup EC10 LMR dark for CCCCOC(=O)[C@@H](C)Oc1ccc(Oc2ccc(C(F)(F)F)cn2)cc1 [fluazifop-p-butyl]
a: 0.362

q: // lookup EC10 LMR dark for O=C(O)CCc1nc(-c2ccccc2)c(-c2ccccc2)o1 [Oxaprozin]
a: 11.8

q: // lookup EC10 LMR dark for O=C(O)Cc1ccccc1Nc1c(Cl)cccc1Cl [Diclofenac]
a: 6.21

q: // lookup EC10 LMR dark for CC1(C)O[C@@H]2[C@@H](CO[C@@]3(COS(N)(=O)=O)OC(C)(C)O[C@@H]23)O1 [Topiramate]
a: 273

q: // lookup EC10 LMR dark for CC1(C)OC(=O)C(OCC2CC2)=C1c1ccc(S(C)(=O)=O)cc1 [Firocoxib]
a: 13.9

q: // lookup EC10 LMR dark for CC(=O)Nc1ccc(O)cc1 [Acetaminophen]
a: 337

q: // lookup EC10 LMR dark for CCCCC(O)(Cn1cncn1)c1ccc(Cl)cc1Cl (centres undefined) [Hexaconazole]
a: 3.21

q: // lookup EC10 LMR dark for CCO/N=C(\CC)C1=C(O)CC(c2c(C)cc(C)cc2C)CC1=O (centres undefined) [Tralkoxydim]
a: 0.149

q: // lookup EC10 LMR dark for Cc1cc2c(s1)Nc1ccccc1N=C2N1CCN(C)CC1 [Olanzapine]
a: 5.65

---

Tested on: Danio rerio embryo
Assay: EC20 Bladder size_Decrease; higher = less potent
Details: exposure time: 4 dpf
readout-kind: EC20 Bladder size Decrease
Write the numeric value and follow it with the unit.

q: // lookup EC20 Bladder size Decrease for `C[Si](Cn1cncn1)(c1ccc(F)cc1)c1ccc(F)cc1`
a: 1.69 µM

q: // lookup EC20 Bladder size Decrease for `COC(=O)Nc1nc2ccccc2[nH]1`
a: 1.33 µM

q: // lookup EC20 Bladder size Decrease for CC1(C)O[C@@H]2[C@@H](CO[C@@]3(COS(N)(=O)=O)OC(C)(C)O[C@@H]23)O1 [Topiramate]
a: 34.7 µM

q: // lookup EC20 Bladder size Decrease for `CC(=O)Nc1ccc(O)cc1`
a: 1150 µM

q: // lookup EC20 Bladder size Decrease for CN(Cc1cnc2nc(N)nc(N)c2n1)c1ccc(C(=O)N[C@@H](CCC(=O)O)C(=O)O)cc1 [Methotrexate]
a: 99.9 µM

q: // lookup EC20 Bladder size Decrease for `Cc1ccc(-c2cc(C(F)(F)F)nn2-c2ccc(S(N)(=O)=O)cc2)cc1`
a: 8.23 µM

---

System: Danio rerio embryo
Test: EC50 Eye-jaw distance_Decrease
Details: exposure time: 4 dpf
Exercise: for every item that follows, state its recorded EC50 Eye-jaw distance Decrease.
Reply with just the number (in µM).

q: // lookup EC50 Eye-jaw distance Decrease for CCC(=O)OCC(=O)[C@@]1(OC(=O)CC)[C@@H](C)C[C@H]2[C@@H]3CCC4=CC(=O)C=C[C@]4(C)[C@@]3(F)[C@@H](O)C[C@@]21C [betamethasone dipropionate]
a: 13.1

q: // lookup EC50 Eye-jaw distance Decrease for CC1=C(/C=C/C(C)=C/C=C/C(C)=C/C(=O)O)C(C)(C)CCC1 [all-trans retinoic acid]
a: 0.033

q: // lookup EC50 Eye-jaw distance Decrease for `O=C(O)CCc1nc(-c2ccccc2)c(-c2ccccc2)o1`
a: 21.5

q: // lookup EC50 Eye-jaw distance Decrease for `CCOC(=O)N1CCC(=C2c3ccc(Cl)cc3CCc3cccnc32)CC1`
a: 6.86

q: // lookup EC50 Eye-jaw distance Decrease for `CNCCC=C1c2ccccc2CCc2ccccc21`
a: 21.5

q: // lookup EC50 Eye-jaw distance Decrease for `O=C(O)Cc1ccccc1Nc1c(Cl)cccc1Cl`
a: 10.1

q: // lookup EC50 Eye-jaw distance Decrease for CCO/N=C(\CC)C1=C(O)CC(c2c(C)cc(C)cc2C)CC1=O (stereo not drawn)
a: 97.9

q: // lookup EC50 Eye-jaw distance Decrease for CC(=O)OCC(=O)[C@@]1(OC(C)=O)[C@@H](C)C[C@H]2[C@@H]3C[C@H](F)C4=CC(=O)C=C[C@]4(C)[C@@]3(F)[C@@H](O)C[C@@]21C [diflorasone diacetate]
a: 2.38

---

Exercise: for every item that follows, state its recorded EC20 Body length Decrease.
Test system: Danio rerio embryo
Test: EC20 Body length_Decrease; higher = less potent
Details: exposure time: 2 dpf
Reply with just the number (in µM).

q: // lookup EC20 Body length Decrease for `C[Si](Cn1cncn1)(c1ccc(F)cc1)c1ccc(F)cc1`
a: 8.01

q: // lookup EC20 Body length Decrease for CCCNCC(O)COc1ccccc1C(=O)CCc1ccccc1 (centres undefined)
a: 34.1

q: // lookup EC20 Body length Decrease for `COC(=O)Nc1nc2cc(Sc3ccccc3)ccc2[nH]1`
a: 0.035

q: // lookup EC20 Body length Decrease for `COC(=O)Nc1nc2ccccc2[nH]1`
a: 2.95

q: // lookup EC20 Body length Decrease for CC(C)(C)C(O)/C(=C/c1ccc(Cl)cc1Cl)n1cncn1 (centres undefined)
a: 7.36

q: // lookup EC20 Body length Decrease for `CCCCOC(=O)[C@@H](C)Oc1ccc(Oc2ccc(C(F)(F)F)cn2)cc1`
a: 1.71

q: // lookup EC20 Body length Decrease for `Cc1ccc(-c2cc(C(F)(F)F)nn2-c2ccc(S(N)(=O)=O)cc2)cc1`
a: 21.9

q: // lookup EC20 Body length Decrease for CC(C)(C)C(O)C(Oc1ccc(Cl)cc1)n1cncn1 (centres undefined)
a: 98.6

q: // lookup EC20 Body length Decrease for `CCOC(=O)N1CCC(=C2c3ccc(Cl)cc3CCc3cccnc32)CC1`
a: 6

---

Test system: Danio rerio embryo
Test: EC20 Curvature_Increase; higher = less potent
Conditions: exposure time: 4 dpf
// label = y if EC20 Curvature Increase is not less than 20 µM, otherwise n

q: Identify whether the reported EC20 Curvature Increase of the following molecule is 20 µM or greater: Cc1ccc(-c2cc(C(F)(F)F)nn2-c2ccc(S(N)(=O)=O)cc2)cc1 [Celecoxib]
a: n

q: Identify whether the reported EC20 Curvature Increase of the following molecule is 20 µM or greater: O=C(O)CCc1nc(-c2ccccc2)c(-c2ccccc2)o1 [Oxaprozin]
a: y

q: Identify whether the reported EC20 Curvature Increase of the following molecule is 20 µM or greater: CN(Cc1cnc2nc(N)nc(N)c2n1)c1ccc(C(=O)N[C@@H](CCC(=O)O)C(=O)O)cc1 [Methotrexate]
a: y

q: Identify whether the reported EC20 Curvature Increase of the following molecule is 20 µM or greater: CC1(C)O[C@@H]2[C@@H](CO[C@@]3(COS(N)(=O)=O)OC(C)(C)O[C@@H]23)O1 [Topiramate]
a: y

q: Identify whether the reported EC20 Curvature Increase of the following molecule is 20 µM or greater: COC(=O)Nc1nc2cc(Sc3ccccc3)ccc2[nH]1 [Fenbendazole]
a: n

q: Identify whether the reported EC20 Curvature Increase of the following molecule is 20 µM or greater: CC(=O)Nc1ccc(O)cc1 [Acetaminophen]
a: y

q: Identify whether the reported EC20 Curvature Increase of the following molecule is 20 µM or greater: CC(C)(C)C(O)/C(=C/c1ccc(Cl)cc1Cl)n1cncn1 (centres undefined) [Diniconazole]
a: n

q: Identify whether the reported EC20 Curvature Increase of the following molecule is 20 µM or greater: C[Si](Cn1cncn1)(c1ccc(F)cc1)c1ccc(F)cc1 [Flusilazole]
a: n

q: Identify whether the reported EC20 Curvature Increase of the following molecule is 20 µM or greater: CC1=C(/C=C/C(C)=C/C=C/C(C)=C/C(=O)O)C(C)(C)CCC1 [all-trans retinoic acid]
a: n
